# target.or.test.system: P. falciparum formate–nitrite transporter (PfFNT) (Plasmodium falciparum, UniProt O77389)
# Construct: full-length PfFNT, N-terminal Strep-tag; residues 7 to 293 modelled (apo structure); homopentamer
# assay.summary: ITC with purified protein; cryo-EM structure of the complex at […] Å
pKd: −log10 of the molar value.
endpoint: pKd

[[record]]
compound = "COc1ccc2c(c1)OC(O)(C(F)(F)C(F)(F)F)CC2=O (stereo not shown)"
target_or_test_system = "P. falciparum formate–nitrite transporter (PfFNT) (Plasmodium falciparum, UniProt O77389)"
endpoint = "pKd"
value_observed = "~8.14"


* * *

# target.or.test.system: P. falciparum formate–nitrite transporter (PfFNT) (Plasmodium falciparum, UniProt O77389, T106A)
# Construct: gene PF3D7_0316600; PfFNT T106A mutant, purified as wild type (full-length, N-terminal Strep-tag)
# assay.summary: ITC with purified mutant protein
# Format: binding
endpoint: Kd (µM)

[[record]]
molecule = "COc1ccc2c(c1)OC(O)(C(F)(F)C(F)(F)F)CC2=O (stereo not shown) [MMV007839]"
value_observed = 0.0808


Where do these numbers come from? They come from paper PMC8428694.
